Test: qHTS of pediatric cancer cell lines to identify multiple opportunities for drug repurposing: Confirmatory screen for TC32 cells (AID 1347118);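 note: cells exposed to compound for 48 h before the read; nearly all actives have a fitted effect of over 65% in size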; note: potency is the fitted concentration of half-maximal effect
Conditions: TC32 Ewing sarcoma cells viability qHTS; series mostly up to 45.9 µM
Inconclusive results are not listed. Activity calls are given as the source filed them. Calls come from the whole dose curve; as a rule, active = well fitted cell-killing curve with a large enough effect; inconclusive = small, poorly fitted or top-dose-only effect; inactive = no such curve, though single readings can be large or run the other way.
EXPERIMENTAL_READOUT: Potency

// below: answered compounds
C[N+](C)([O-])CCNc1ccc(NCC[N+](C)(C)[O-])c2c1C(=O)c1c(O)ccc(O)c1C2=O | 4.14 µM (active)
Nc1ncn([C@@H]2O[C@H](CO)[C@@H](O)[C@@H]2O)c(=O)n1 | 4.65 µM (active)
CN(CC(=O)N(Cc1ccc(C2CCCCC2)cc1)c1ccc(C(=O)O)c(O)c1)S(=O)(=O)c1c(F)c(F)c(F)c(F)c1F | 26.1 µM (active)
NS(=O)(=O)OC[C@@H]1C[C@@H](n2ccc3c(N[C@H]4CCc5ccccc54)ncnc32)C[C@H]1O | inactive
C=CCNC1=C2C[C@@H](C)C[C@H](OC)[C@@H](O)[C@@H](C)C=C(C)[C@H](OC(N)=O)[C@@H](OC)C=CC=C(C)C(=O)NC(=CC1=O)C2=O | 0.522 µM (active)
O=C(O)c1ccc(Nc2ncc3c(n2)-c2ccc(Cl)cc2C(c2c(F)cccc2F)=NC3)cc1 | 1.47 µM (active)
O=C(NC1CC1)c1cccc(-c2ccc3c(NC(=O)C4CC4)n[nH]c3c2)c1 | 5.85 µM (active)
COc1cccc2c1C(=O)c1c(O)c3c(c(O)c1C2=O)C[C@@](O)(C(C)=O)C[C@H]3O[C@H]1C[C@H](N)[C@H](O)[C@H](C)O1 | 0.117 µM (active)
Cc1cnc(Nc2ccc(CN3CCOCC3)cc2)nc1Nc1cccc(S(=O)(=O)NC(C)(C)C)c1 | 3.29 µM (active)
CC(=O)O[C@H]1C[C@@H]2CC[C@H]3[C@H]4C[C@H]([N+]5(C)CCCCC5)[C@@H](OC(C)=O)[C@@]4(C)CC[C@@H]3[C@@]2(C)C[C@H]1N1CCCCC1 | 2.33 µM (active)

Note: attention shifts to another entry.
Query string: Quick one: Potency for "COC(=O)[C@@H]1[C@H]2C[C@@H]3c4[nH]c5ccccc5c4CCN3C[C@@H]2CC[C@@H]1O" ?
Result string: inactive

---

Assay: Quantitative High-Throughput drug screen in 47 multiple myeloma cell lines against the NCATS MIPE library collection: VP6_DJ cell viability assay (AID 1919867); note: potency is the fitted concentration of half-maximal effect; nearly all actives have a fitted effect of over 40% in size
Settings: ATP luminescence, 48 h; series mostly up to 45.8 µM
Records with an inconclusive call do not appear. Active and inactive are the calls of the source. Calls follow the shape of the dose curve; as a rule, active = well fitted cell-killing curve with a large enough effect; inconclusive = small, poorly fitted or top-dose-only effect, or effect the other way; inactive = no such curve, though single readings can be large or run the other way.
Provide the recorded Potency for the entries that follow.

C=CCNc1c(O)cc2c(O)c1C[C@@H](C)C[C@H](OC)[C@@H](O)[C@@H](C)C=C(C)[C@H](OC(N)=O)[C@@H](OC)C=CC=C(C)C(=O)N2 | 0.118 µM (active)
COc1cccc2c1C(=O)c1c(O)c3c(c(O)c1C2=O)C[C@@](O)(C(=O)CO)C[C@@H]3O[C@H]1C[C@H](N)[C@H](OC2CCCCO2)[C@H](C)O1 (some centres undefined) | 5.26 µM (active)
Cn1cc(C2=C(c3c4n(c5ccccc35)CCC(CN)C4)C(=O)NC2=O)c2ccccc21 (centres undefined) | 6.62 µM (active)

Note: attention shifts to another entry.
Query string: Quick one: Potency for "CC(=CC(=O)Nc1ccccc1C(=O)O)c1ccc2ccccc2c1" ?
Result string: 18.7 µM (active)

Reference for the values: PubChem BioAssay (NCATS)
